Origin of values: ChEMBL document CHEMBL4699544

# TEST_TARGET: Aurora kinase A (Homo sapiens)
# MEASUREMENT_NOTES: Inhibition of recombinant Aurora A (unknown origin) using myelin basic protein as substrate incubated for 30 mins in presence of DTT by [gamma-33P]-ATP based radioactive filter binding assay
pIC50: −log10 of the molar value.
PROPERTY_MEASURED: pIC50

* CC(C)(COC(=O)CCC(=O)OC[C@@H]1O[C@H](n2cnc3c(N)ncnc32)[C@@H](O)[C@H]1O)[C@@H](O)C(=O)NCCC(=O)NCCS | 3.93

* * *

# TEST_TARGET: Aurora kinase A (Homo sapiens, UniProt O14965)
# Sequence (O14965 whole entry): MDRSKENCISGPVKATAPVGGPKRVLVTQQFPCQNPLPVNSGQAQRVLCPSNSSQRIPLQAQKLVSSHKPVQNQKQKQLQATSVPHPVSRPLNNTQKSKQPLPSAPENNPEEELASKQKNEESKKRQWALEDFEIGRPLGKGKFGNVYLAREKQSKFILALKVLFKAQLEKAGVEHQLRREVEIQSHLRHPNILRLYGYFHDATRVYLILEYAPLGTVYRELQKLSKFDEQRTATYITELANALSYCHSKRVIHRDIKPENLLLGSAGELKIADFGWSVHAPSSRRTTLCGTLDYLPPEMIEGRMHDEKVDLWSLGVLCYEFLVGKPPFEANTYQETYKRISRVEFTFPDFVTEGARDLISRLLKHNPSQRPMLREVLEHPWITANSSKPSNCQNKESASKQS
# MEASUREMENT_NOTES: Inhibition of recombinant Aurora A (unknown origin) using myelin basic protein as substrate incubated for 30 mins in presence or absence of DTT by [gamma-33P]-ATP based radioactive filter binding assay
pIC50: −log10 of the molar value.
PROPERTY_MEASURED: pIC50

• CC(C)(COC(=O)CCC(=O)OC[C@@H]1O[C@H](n2cnc3c(N)ncnc32)[C@@H](O)[C@H]1O)[C@@H](O)C(=O)NCCC(=O)NCCS = 4.08
• Nc1ncnc2c1ncn2[C@H]1O[C@@H](COC(=O)CC(=O)O)[C@H](O)[C@@H]1O = 3.38
• CNC(=O)[C@H](O)C(C)(C)COC(=O)CCC(=O)OC[C@@H]1O[C@H](n2cnc3c(N)ncnc32)[C@@H](O)[C@H]1O = 2.89
• CCNC(=O)CCNC(=O)[C@@H](O)C(C)(C)COP(=O)(O)OP(=O)(O)OC[C@@H]1O[C@H](n2cnc3c(N)ncnc32)[C@@H](O)[C@H]1OP(=O)(O)O = 3.80
• CCCNC(=O)CCNC(=O)[C@H](O)C(C)(C)COC(=O)CC(=O)OC[C@@H]1O[C@H](n2cnc3c(N)ncnc32)[C@@H](O)[C@H]1O = 2.89
• CC(C)(COP(=O)(O)OP(=O)(O)OC[C@@H]1O[C@H](n2cnc3c(N)ncnc32)[C@@H](O)[C@H]1O)[C@H](O)C(=O)NCCC(=O)NCCS = 4.77
